- System: Staphylococcus aureus 29213
- experimental_details: Antibacterial growth inhibition assay (serial dilution, colorimeter at 600 nm), S. aureus 29213
- Assay type: cell-based
- experimental_parameters: 50% growth inhibition; methicillin susceptible strain; serial dilution 238-0.46 μg/ml
parameter: MIC, concentration at 50% inhibition of bacteria growth, S. aureus 29213 (µg/mL)

Here is how some compounds turned out for MIC, concentration at 50% inhibition of bacteria growth, S. aureus 29213.
[Q] Item under review: CCN1CC[C@@H](CN(Cc2ccccc2)Cc2ccc3ccccc3c2)OC1=O . Reported MIC, concentration at 50% inhibition of bacteria growth, S. aureus 29213?
[A] 15.0

[Q] Item under review: CCN1CC[C@@H](CN(Cc2ccccc2)Cc2ccccc2[N+](=O)[O-])OC1=O . Reported MIC, concentration at 50% inhibition of bacteria growth, S. aureus 29213?
[A] 72.0

[Q] Item under review: CN1CC[C@@H](CN(Cc2ccccc2)Cc2ccc(C#N)cc2)OC1=O . Reported MIC, concentration at 50% inhibition of bacteria growth, S. aureus 29213?
[A] 200

[Q] Item under review: CCN1CC[C@@H](CN(Cc2ccccc2)Cc2ccccc2C#N)OC1=O . Reported MIC, concentration at 50% inhibition of bacteria growth, S. aureus 29213?
[A] 130

[Q] Item under review: CCN1CC[C@@H](CN(Cc2ccccc2)Cc2c(F)cccc2F)OC1=O . Reported MIC, concentration at 50% inhibition of bacteria growth, S. aureus 29213?
[A] 47.0

P = CN1CC[C@@H](CN(Cc2ccccc2)Cc2cccc([N+](=O)[O-])c2)OC1=O
Q = CCN1CC[C@@H](CN(Cc2ccccc2)Cc2ccc(F)cc2)OC1=O
R = CCN1CC[C@@H](CN(Cc2ccccc2)Cc2cccc(C#N)c2)OC1=O
[Q] Exam item: list the entries in increasing order of MIC, concentration at 50% inhibition of bacteria growth, S. aureus 29213. Labels, ranked as asked.
[A] Q, P, R

I = CN1CC[C@@H](CN(Cc2ccccc2)Cc2ccccc2[N+](=O)[O-])OC1=O
II = CCN1CC[C@@H](CN(Cc2ccccc2)Cc2cc(F)cc(F)c2)OC1=O
III = CCN1CC[C@@H](CN(Cc2ccccc2)Cc2cccc([N+](=O)[O-])c2)OC1=O
[Q] Please list these compounds in decreasing order of MIC, concentration at 50% inhibition of bacteria growth, S. aureus 29213. Labels, ranked as asked.
[A] I, III, II

A = CN1CC[C@@H](CN(Cc2ccccc2)Cc2ccc(F)cc2F)OC1=O
B = CN1CC[C@@H](CN(Cc2ccccc2)Cc2ccccc2C#N)OC1=O
[Q] For the two items A and B , which reports the higher MIC, concentration at 50% inhibition of bacteria growth, S. aureus 29213 value? Please respond with the label that marks your chosen entry.
[A] B

P = CN1CC[C@@H](CN(Cc2ccccc2)Cc2ccc(F)cc2)OC1=O
Q = CN1CC[C@@H](CN(Cc2ccccc2)Cc2cccc(C#N)c2)OC1=O
[Q] For the two items P and Q , which reports the higher MIC, concentration at 50% inhibition of bacteria growth, S. aureus 29213 value? Please respond with the label that marks your chosen entry.
[A] Q

Data origin, for the record: patent US7700590B2
